src = the RNAGym collection of RNA variant scans (doi:10.7554/elife.90254)

B1: LINE1-mini (parent)
chain: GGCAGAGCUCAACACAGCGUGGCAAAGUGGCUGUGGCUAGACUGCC

Variants of: B1
assay method text: self-cleavage, relative activity (ratio to wild type); higher = more cleavage; in vitro, sequencing; the parent is a self-cleaving ribozyme
self-cleavage: recorded values
Answer with a bare number; do not write a unit.

Previously resolved entries follow.
G7C C37A    0.09
A25U G44U    0.4
U9G C45A    0.11
A11G U20G    0.03
G2U A12G    0.02

Value of self-cleavage reported for the variant U28A G36U is 0.08

Value of self-cleavage reported for the variant U34A U43C is 0.04

Value of self-cleavage reported for the variant G22C U28A is 0.44

Value of self-cleavage reported for the variant A4U A39U is 0.11
